The reported measurements were obtained from ChEMBL document CHEMBL3585273.

- experimental-target: Sarcoplasmic/endoplasmic reticulum calcium ATPase 1 (Oryctolagus cuniculus, UniProt P04191)
- Sequence (P04191 whole entry): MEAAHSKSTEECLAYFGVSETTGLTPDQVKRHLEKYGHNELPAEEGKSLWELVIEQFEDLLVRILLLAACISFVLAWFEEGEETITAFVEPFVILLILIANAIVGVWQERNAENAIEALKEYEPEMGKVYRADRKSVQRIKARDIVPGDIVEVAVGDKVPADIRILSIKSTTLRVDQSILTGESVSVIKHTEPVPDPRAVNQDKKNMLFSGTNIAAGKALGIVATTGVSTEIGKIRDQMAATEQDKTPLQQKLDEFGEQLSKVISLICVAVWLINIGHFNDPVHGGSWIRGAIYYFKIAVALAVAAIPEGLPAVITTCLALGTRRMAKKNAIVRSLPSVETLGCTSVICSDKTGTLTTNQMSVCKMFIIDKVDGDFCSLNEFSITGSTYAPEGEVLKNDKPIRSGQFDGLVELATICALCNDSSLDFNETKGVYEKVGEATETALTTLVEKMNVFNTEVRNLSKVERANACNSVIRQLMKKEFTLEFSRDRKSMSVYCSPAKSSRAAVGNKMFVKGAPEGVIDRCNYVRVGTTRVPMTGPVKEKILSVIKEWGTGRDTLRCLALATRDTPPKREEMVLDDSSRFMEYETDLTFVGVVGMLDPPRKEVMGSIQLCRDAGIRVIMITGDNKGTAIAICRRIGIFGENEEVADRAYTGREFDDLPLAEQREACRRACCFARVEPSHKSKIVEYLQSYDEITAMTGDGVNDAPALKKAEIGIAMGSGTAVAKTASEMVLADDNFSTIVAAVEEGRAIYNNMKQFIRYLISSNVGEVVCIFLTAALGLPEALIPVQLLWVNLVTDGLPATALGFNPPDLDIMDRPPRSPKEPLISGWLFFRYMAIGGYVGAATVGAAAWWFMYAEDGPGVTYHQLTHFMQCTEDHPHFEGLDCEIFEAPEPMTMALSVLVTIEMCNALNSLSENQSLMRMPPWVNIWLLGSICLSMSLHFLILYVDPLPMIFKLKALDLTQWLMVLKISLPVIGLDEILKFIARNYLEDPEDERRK
- protocol-description: Binding affinity to rabbit skeletal muscle SERCA1a preincubated for 5 mins followed by Mg-ATP addition measured over 6 mins by spectrophotometric analysis
pKd: −log10 of the molar value.
# pKd >= 5 gives condition met, anything below gives condition not met

| compound | class-name |
| --- | --- |
| C=CC(=C)CC[C@]1(C)[C@H](C)CC[C@@]23C(C[C@H](OC(C)=O)C[C@@H]12)[C@@H](OC(C)=O)O[C@H]3OC(C)=O (stereo not given in full) | condition not met |
| C=C/C(C)=C/C[C@]1(C)[C@H](C)C[C@H](O)[C@@]23C(=C[C@H](OC(=O)c4ccc(O)cc4)C[C@@H]12)[C@@H](OC(C)=O)O[C@H]3OC(C)=O | condition met |
| C=C/C(C)=C/C[C@]1(C)[C@H](C)C[C@H](OC(C)=O)[C@@]23C(=C[C@H](OC(=O)c4ccc(O)cc4)C[C@@H]12)[C@@H](OC(C)=O)O[C@H]3OC(C)=O | condition not met |
| C=CC(=C)[C@H](O)C[C@]1(C)[C@H](C)C[C@H](OC(=O)CC(O)CCCCCCCCC)[C@@]23C(=C[C@H](O)C[C@@H]12)[C@@H](OC(C)=O)O[C@H]3OC(C)=O (stereo not given in full) | condition not met |
